biological target: Dihydroorotate dehydrogenase (quinone), mitochondrial (Plasmodium falciparum (isolate 3D7)); experiment: PfDHODH enzyme inhibitors, primary screen, biochemical, C-terminal His tag, absorbance 600 nm (AID 1175); settings: DCIP absorbance 600 nm, higher = more signal, called active from +8 up or from −8 down;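 further: recombinant parasite enzyme with a five histidine tag at its C terminus; test concentration not given here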
reported-metric: composite z-score
Numbers only.

// known answers, use as guide
COC(=O)[C@@]1(Cc2ccccc2)[C@H]2c3cc(C(=O)N(C)C)n(Cc4ccc(Cl)c(C(F)(F)F)c4)c3C[C@H]2CN1C(=O)c1ccccc1: 0.46
O=C1O[C@H](c2ccccc2)[C@H](c2ccccc2)N2[C@H]1[C@@H](C(=O)O)[C@]1(C(=O)Nc3ccc(C#CC4(O)CCCCCC4)cc31)[C@H]2c1ccccc1OCCO: -2.25
C=CC[C@]1(C(=O)NCCN2CCOCC2)N=C(c2ccc(OCCCO)cc2)O[C@H]1c1ccccc1: 0.507

I need composite z-score for every entry listed below, if you could help.
1. COc1ccc([Si](C)(C)[C@@H]2[C@@H](CC(=O)N3Cc4ccccc4C[C@H]3CO)O[C@]3(C(=O)N(Cc4ccc(I)cc4)c4ccccc43)[C@H]2C)cc1
2. C=C(C(=O)CC[C@H](OC(=O)c1ccccc1-c1ccccc1C(=O)O)c1ccc(OCCO)cc1)C(C)C
3. C[C@]12C(=O)N(CCO)[C@@H]3C(=O)N(c4ccc(Cl)cc4)CC=CC31O[C@@H]1/C=C\CCCOC(=O)C12 (some centres not stated)
4. C=C(COC)C(=O)CC[C@H](OC(C)=O)c1ccc(CO)o1

Result:
1. 0.312
2. -0.311
3. -0.141
4. -1.28
